Reported IC50 values for the following compounds.
TESTED ON: TrkA (Homo sapiens, UniProt P04629)
Construct: The enzyme is a GST-fusion of the intracellular domain expressed in SF9 cells
Sequence (P04629 440-796 limits assumed, species assumed): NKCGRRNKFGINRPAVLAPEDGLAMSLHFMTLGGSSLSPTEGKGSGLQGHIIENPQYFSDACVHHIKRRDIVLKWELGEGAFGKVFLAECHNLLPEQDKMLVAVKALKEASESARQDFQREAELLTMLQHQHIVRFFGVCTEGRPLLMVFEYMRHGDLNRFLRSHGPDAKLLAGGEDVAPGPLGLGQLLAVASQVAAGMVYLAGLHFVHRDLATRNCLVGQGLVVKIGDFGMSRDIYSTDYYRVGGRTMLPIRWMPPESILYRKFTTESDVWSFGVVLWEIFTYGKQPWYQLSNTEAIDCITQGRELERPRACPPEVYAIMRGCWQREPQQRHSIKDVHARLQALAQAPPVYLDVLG
TEST DESCRIPTION: TrkA tyrosine kinase substrate phosphorylation assay (Src peptide, 33P-ATP, p81 filter plates)
CONDITION DETAILS: GST-fusion of TrkA intracellular domain; 20-40 nM TrkA, 30 uM ATP, 50 uM Src peptide, RT 120 min

Examples from the recorded data:
CNS(=O)(=O)Cc1ccc(N/N=C2\C(=O)Nc3cc(C(C)C)c(O)c(Cl)c32)cc1; < 10 nM
Cc1nnc(NS(=O)(=O)c2ccc(N/C=C3\C(=O)Nc4ccccc43)cc2)s1; 10 to 100 nM
O=C1Nc2ccccc2/C1=C/Nc1ccc(S(=O)(=O)Nc2ccccn2)cc1; 10 to 100 nM

Quickly give me recorded IC50 for CS(=O)(=O)Nc1ccc(N/C=C2\C(=O)Nc3ccccc32)cc1
< 10 nM

Assign IC50 to the following record: NS(=O)(=O)c1cccc(N/C=C2\C(=O)Nc3ccccc32)c1
10 to 100 nM
